# assayed_target: Thyroid hormone receptor beta (Homo sapiens)
# test_description: qHTS assay for small molecule antagonists of thyroid hormone receptor beta signaling (AID 588547);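 note: cells stimulated with 0.4 nM T3 agonist during compound exposure; series mostly up to about 77 µM; % is set by controls: 0 for no effect and ±100 for the full control effect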
# experimental_context: TR-UAS-bla HEK293, beta-lactamase ratio, antagonist mode, 18 h
Inconclusive results are not listed.
outcome_measure: activity change % (negative = inhibition) (%)

{"columns": ["compound", "assayed_target", "numeric_result"],
 "data": [
  ["Oc1ccc(Cl)c(Cl)c1Cl", "Thyroid hormone receptor beta (Homo sapiens)", 14.5],
  ["Cc1ccccc1[N+](=O)[O-]", "Thyroid hormone receptor beta (Homo sapiens)", 6.46],
  ["Clc1ccccc1", "Thyroid hormone receptor beta (Homo sapiens)", 8.57],
  ["CN=C=O", "Thyroid hormone receptor beta (Homo sapiens)", -7.41],
  ["O=S(=O)(O)F", "Thyroid hormone receptor beta (Homo sapiens)", 10],
  ["C=CCCl", "Thyroid hormone receptor beta (Homo sapiens)", -1.64],
  ["C=CCc1cc(OC)c2c(c1)OCO2", "Thyroid hormone receptor beta (Homo sapiens)", 4.98],
  ["ClCc1ccccn1", "Thyroid hormone receptor beta (Homo sapiens)", -1.68],
  ["ClC(Cl)(Cl)C(Cl)(Cl)Cl", "Thyroid hormone receptor beta (Homo sapiens)", 3.45],
  ["Cl/C=C/CCl", "Thyroid hormone receptor beta (Homo sapiens)", -4.73],
  ["O=c1ccc(=O)[nH][nH]1", "Thyroid hormone receptor beta (Homo sapiens)", -3.55],
  ["Cc1cc(C)cc(OP(=O)(Oc2cc(C)cc(C)c2)Oc2cc(C)cc(C)c2)c1", "Thyroid hormone receptor beta (Homo sapiens)", 2.87],
  ["CCC[N+](=O)[O-]", "Thyroid hormone receptor beta (Homo sapiens)", -9.22],
  ["BrCC(Br)C1CCC(Br)C(Br)C1 (stereo unspecified)", "Thyroid hormone receptor beta (Homo sapiens)", 5.99],
  ["BrCCc1ccccc1", "Thyroid hormone receptor beta (Homo sapiens)", -8.86],
  ["ClCCBr", "Thyroid hormone receptor beta (Homo sapiens)", 0.0673],
  ["Oc1cc(Cl)cc(Cl)c1", "Thyroid hormone receptor beta (Homo sapiens)", 11.4],
  ["OCC(Cl)CCl (stereo unspecified)", "Thyroid hormone receptor beta (Homo sapiens)", -13.6],
  ["c1ccoc1", "Thyroid hormone receptor beta (Homo sapiens)", 20.3],
  ["Nc1cc(Cl)cc(C(=O)O)c1Cl", "Thyroid hormone receptor beta (Homo sapiens)", -1.41],
  ["Nc1ncc([N+](=O)[O-])s1", "Thyroid hormone receptor beta (Homo sapiens)", -7.23],
  ["CC(C)CC(C)N (stereo unspecified)", "Thyroid hormone receptor beta (Homo sapiens)", 11.1],
  ["CC(C)OC(=O)Cc1ccccc1", "Thyroid hormone receptor beta (Homo sapiens)", -4.91],
  ["Nn1cnnc1", "Thyroid hormone receptor beta (Homo sapiens)", 12.8],
  ["CC(C)(C)OOC(=O)c1ccccc1", "Thyroid hormone receptor beta (Homo sapiens)", 11.4],
  ["COC(=O)Nc1cccc(OC(=O)Nc2cccc(C)c2)c1", "Thyroid hormone receptor beta (Homo sapiens)", -5.68],
  ["CCC#N", "Thyroid hormone receptor beta (Homo sapiens)", -12.3],
  ["N#C/C(N)=C(/N)C#N", "Thyroid hormone receptor beta (Homo sapiens)", -2.94],
  ["ClCCOCOCCCl", "Thyroid hormone receptor beta (Homo sapiens)", 10.8],
  ["CCCCCCCCCCCCCl", "Thyroid hormone receptor beta (Homo sapiens)", -6.1],
  ["C=CC(=O)OCC(C)C", "Thyroid hormone receptor beta (Homo sapiens)", -1.18],
  ["C=CC(=O)OCCN(C)C", "Thyroid hormone receptor beta (Homo sapiens)", -23.4],
  ["Cc1cnc[nH]1", "Thyroid hormone receptor beta (Homo sapiens)", 8],
  ["Cc1cc(-c2cc(C)c(N)c(C)c2)cc(C)c1N", "Thyroid hormone receptor beta (Homo sapiens)", 5.74],
  ["Oc1cccc(Cl)c1", "Thyroid hormone receptor beta (Homo sapiens)", 0.91],
  ["c1ccc(N=NNc2ccccc2)cc1", "Thyroid hormone receptor beta (Homo sapiens)", 0.0148]
]}
